# assay.overview: In vivo PK studies in mice
# Design: species or system Male Balb/C mice
# details: male, Balb/C, mouse, plasma, IV 10 mg/kg, read-out: CMax IV
Where a name gives a salt, the structure may show the parent alone.

{"compound": "O=C(NO)c1ccc(CCCN2CCC(CNC3CC3c3ccc(-c4cncnc4)cc3)CC2)cc1 (stereo not shown) [Example 61, TFA Salt]", "Cmax, ng/mL": 2760}

###

Catalogue of C0 values
# assay.overview: In vivo PK studies in mice
# Design: species or system Male Balb/C mice
# details: male, Balb/C, mouse, plasma, IV 2 mg/kg
Counter-ions that a name gives are not always drawn.

{"compound": "Cn1cc(-c2ccc(C3CC3NCC3CCN(Cc4ccc(C(=O)Nc5ccccc5N)cc4)CC3)cc2)cn1 (stereo not drawn) [Example 142, TFA Salt]", "C0 (ng/mL)": 198}
{"compound": "O=C(NO)c1ccc(CCCN2CCC(CNC3CC3c3ccc(-c4ccc(F)cc4)cc3)CC2)cc1 (stereo not drawn) [Example 57, TFA Salt]", "C0 (ng/mL)": 260}
{"compound": "O=C(NO)c1ccc(/C=C/C(=O)N2CCC(CN[C@@H]3C[C@H]3c3ccc(F)cc3)CC2)cc1 [Example 115A, TFA Salt]", "C0 (ng/mL)": 452}

###

# assay.overview: In vivo PK studies in mice
# Design: species or system Male Balb/C mice
# details: male, Balb/C, mouse, plasma, IV 10 mg/kg
Counter-ions that a name gives are not always drawn.
experimental.endpoint: Vd

{"compound": "O=C(NO)c1ccc(CCCN2CCC(CNC3CC3c3ccc(-c4cncnc4)cc3)CC2)cc1 (stereo not shown) [Example 61, TFA Salt]", "reported": "30 L/kg"}

###

# assay.overview: In vivo PK studies in mice
# Design: species or system Male Balb/C mice
# details: male, Balb/C, mouse, plasma, PO 10 mg/kg, read-out: t1/2 PO (converted)
Counter-ions that a name gives are not always drawn.

{"compound": "O=C(NO)c1ccc(CCCN2CCC(CNC3CC3c3ccc(-c4ccc(F)cc4)cc3)CC2)cc1 (centres unmarked) [Example 57, TFA Salt]", "half-life, h": 1.83}
{"compound": "O=C(NO)c1ccc(/C=C/C(=O)N2CCC(CN[C@@H]3C[C@H]3c3ccc(F)cc3)CC2)cc1 [Example 115A, TFA Salt]", "half-life, h": 2.78}

###

# tested.system: LSD1 (Homo sapiens (Human), UniProt O60341)
# assay.overview: TR-FRET Assay for LSD1
# details: read-out: LSD1 IC50
pIC50: −log10 of the molar value. Where a name gives a salt, the structure may show the parent alone.
experimental.endpoint: pIC50

{"compound": "O=C(NO)c1cnc(N2CCC(CNC3CC3c3ccc(-c4ccc(F)cc4)cc3)CC2)nc1 (stereo not shown) [Example 15, TFA Salt]", "experimental.endpoint": "pIC50", "reported": 7.02}
{"compound": "O=C(NO)c1ccc(CCCC2CCN(C(=O)CNC3CC3c3ccccc3)CC2)cc1 (stereo not shown) [Example 93, TFA Salt]", "experimental.endpoint": "pIC50", "reported": 7.14}
{"compound": "O=C(NO)c1ccc(CCCN2CCC(CNC3CC3c3ccc(C(=O)N4CCCCC4)cc3)CC2)cc1 (stereo not shown) [Example 54, TFA Salt]", "experimental.endpoint": "pIC50", "reported": 7.64}
{"compound": "O=C(NO)c1ccc(/C=C/C(=O)N2CC(CNC3CC3c3ccc(F)cc3)C2)cc1 (stereo not shown) [Example 118, TFA Salt]", "experimental.endpoint": "pIC50", "reported": 7.43}
{"compound": "Nc1ccccc1NC(=O)c1ccc(CN2CCC(CN[C@@H]3C[C@H]3c3ccccc3)CC2)cc1 [Example 140, TFA Salt]", "experimental.endpoint": "pIC50", "reported": 8.70}
{"compound": "O=C(NO)c1ccc(CCCN2CCC(CNC3CC3c3ccc(-c4ccc(F)cc4)cc3)CC2)cc1 (stereo not shown) [Example 57, TFA Salt]", "experimental.endpoint": "pIC50", "reported": 7.68}
{"compound": "Nc1ccccc1NC(=O)c1coc(CCCN2CCC(CNC3CC3c3ccccc3)CC2)n1 (stereo not shown) [Example 153, TFA Salt]", "experimental.endpoint": "pIC50", "reported": 7.62}
{"compound": "CN(CC1CCN(CCCc2ccc(C(=O)NO)cc2)CC1)C1CC1c1ccccc1 (stereo not shown) [Example 45, TFA Salt]", "experimental.endpoint": "pIC50", "reported": 6.33}
{"compound": "O=C(NO)c1ccc(CCCN2CCC(NC3CC3c3ccccc3)CC2)cc1 (stereo not shown) [Example 44, TFA Salt]", "experimental.endpoint": "pIC50", "reported": 7.89}
{"compound": "O=C(NO)c1ccc(S(=O)(=O)N2CCC(CNC3CC3c3ccccc3)CC2)cc1 (stereo not shown) [Example 85, TFA Salt]", "experimental.endpoint": "pIC50", "reported": 7.21}
{"compound": "Nc1ccccc1NC(=O)c1ccc(/C=C/C(=O)N2CCC(CNC3CC3c3ccc(F)cc3)CC2)cc1 (stereo not shown) [Example 156, TFA Salt]", "experimental.endpoint": "pIC50", "reported": 6.73}
{"compound": "O=C(NO)c1ccc(S(=O)(=O)NCCN2CCC(CNC3CC3c3ccc(F)cc3)CC2)cc1 (stereo not shown) [Example 87, TFA Salt]", "experimental.endpoint": "pIC50", "reported": 7.60}
{"compound": "O=C(NO)c1ccc(OCCN2CCC(CNC3CC3c3ccc(-c4ccc(F)cc4)cc3)CC2)nc1 (stereo not shown) [Example 98, TFA Salt]", "experimental.endpoint": "pIC50", "reported": 7.43}
{"compound": "O=C(NO)c1cc2c(s1)CCN(C(=O)CCCN1CCC(CNC3CC3c3ccc(F)cc3)CC1)C2 (stereo not shown) [Example 106, TFA Salt]", "experimental.endpoint": "pIC50", "reported": 7.59}
{"compound": "O=C(NO)c1ccc(CCN2CCC(CNC3CC3c3ccccc3)CC2)cc1 (stereo not shown) [Example 42, TFA Salt]", "experimental.endpoint": "pIC50", "reported": 7.82}
{"compound": "O=C(NO)c1ccc(OCCN2CCC(CNC3CC3c3ccccc3)CC2)nc1 (stereo not shown) [Example 97, TFA Salt]", "experimental.endpoint": "pIC50", "reported": 7.48}
{"compound": "Cc1noc(C)c1-c1ccc(C2CC2NCC2CCN(Cc3ccc(C(=O)NO)cn3)CC2)cc1 (stereo not shown) [Example 39, TFA Salt]", "experimental.endpoint": "pIC50", "reported": 7.47}
{"compound": "O=C(NO)c1ccc(CCCN2CCC(CNC3CC3c3ccc(F)c(F)c3)CC2)cc1 (stereo not shown) [Example 50, TFA Salt]", "experimental.endpoint": "pIC50", "reported": 7.54}
{"compound": "Cn1cc(-c2ccc(C3CC3NCC3CN(C(=O)/C=C/c4ccc(C(=O)NO)cc4)C3)cc2)cn1 (stereo not shown) [Example 119, TFA Salt]", "experimental.endpoint": "pIC50", "reported": 7.72}
{"compound": "O=C(NO)c1ccc(CCCn2cc(CNC3CC3c3ccccc3)cn2)cc1 (stereo not shown) [Example 76, TFA Salt]", "experimental.endpoint": "pIC50", "reported": 7.08}
{"compound": "O=C(/C=C/c1ccc(CNC2CC2c2ccc(-c3cncnc3)cc2)cc1)NO (stereo not shown) [Example 7, TFA Salt]", "experimental.endpoint": "pIC50", "reported": 7.57}
{"compound": "O=C(NO)c1ccc(Cn2cc(CNC3CC3c3ccccc3)nn2)cc1 (stereo not shown) [Example 41, TFA Salt]", "experimental.endpoint": "pIC50", "reported": 6.50}
